Source of measurements: patent US11827628B2

Test system: Primary human T-cells
Assay: Primary Human T-Cell Proliferation Assay Stimulated with IL-2 (CellTiter-Glo)
Type: cell-based
Settings: primary human T-cell proliferation stimulated with IL-2; read-out: IC50, Example 42
Procedure: The activity of the active compounds of the invention may further be characterized by assaying the effect of the 2,4-substituted pyrimidinediamine compounds described herein on the proliferative response of primary human T-cells. […] The primary human T-cells are incubated with the 2,4-substituted pyrimidinediamine compounds in the presence of IL-2 for 72 hours and at the assay endpoint intracellular ATP concentrations are measured to assess cell viability. […]
Endpoint name: pIC50
Answers are plain numbers, as −log10 of the molar value.

Answered examples (3):
{"Compound": "Cc1ccc(Nc2ncc(F)c(Nc3ccc(-c4ccccn4)c(OCCl)c3)n2)cc1S(N)(=O)=O", "Test system": "Primary human T-cells", "Reported result": 5.91}
{"Compound": "CC(C#N)Oc1ccc(Nc2nc(Nc3ccc(S(N)(=O)=O)cc3)ncc2F)cc1 (racemic)", "Test system": "Primary human T-cells", "Reported result": 6.54}
{"Compound": "Cc1cc(COc2ccc(Nc3nc(Nc4cccc(S(=O)(=O)N(Cc5oc(=O)oc5C)Cc5oc(=O)oc5C)c4)ncc3F)cc2)no1", "Test system": "Primary human T-cells", "Reported result": 6.86}

Now consider the entry below.
Query for Primary human T-cells: what pIC50 does the record show for N#CCC(=O)Nc1ccc(Nc2nc(Nc3cccc(S(N)(=O)=O)c3)ncc2F)cc1Cl ? 5.86

====

Please go through the items and note down their log10 of IC50.
System: Primary human T-cells
Experiment: Primary Human T-Cell Proliferation Assay Stimulated with IL-2 (CellTiter-Glo)
Type: cell-based
Conditions: primary human T-cell proliferation stimulated with IL-2; read-out: IC50, Example 42
Recall that a logarithmic scale is used here: each number is log10 of IC50 in µM.

Would you mind listing log10 of IC50 for each of the following molecules?
1. CC(Oc1ccc(Nc2nc(Nc3ccc(S(N)(=O)=O)cc3)ncc2F)cc1)C(N)=O (racemic)
2. CCN(CC)CCNS(=O)(=O)c1ccc(Nc2ncc(F)c(Nc3ccc(OCc4cccnc4)cc3)n2)cc1
3. Cc1cc(Nc2nc(Nc3ccc(S(N)(=O)=O)cc3)ncc2F)ccc1OCC#N
4. Cc1cc(Nc2nc(Nc3cccc(S(N)(=O)=O)c3)ncc2F)ccc1OCC(N)=O
5. CNS(=O)(=O)c1cc(Nc2ncc(F)c(Nc3ccc(OCc4cc(C)on4)cc3)n2)ccc1C
6. Cc1cc(COc2ccc(Nc3nc(Nc4ccc(Cl)c(S(N)(=O)=O)c4)ncc3F)cc2)no1
7. CCN(CC)CCNS(=O)(=O)c1ccc(Nc2ncc(F)c(Nc3cccc(OCc4nc(C)no4)c3)n2)cc1

1: -0.01; 2: -0.53; 3: -0.03; 4: -0.27; 5: -0.33; 6: 0.03; 7: 1.58

Would you mind listing log10 of IC50 for each of the following molecules?
1. Cc1cc(COc2ccc(Nc3nc(Nc4ccc(F)c(S(N)(=O)=O)c4)ncc3F)cc2)no1
2. N#CCCc1ccc(Nc2nc(Nc3cccc(S(N)(=O)=O)c3)ncc2F)cc1C(F)(F)F
3. CCN(CC)CCNS(=O)(=O)c1cccc(Nc2ncc(F)c(Nc3ccc(OCc4cc(C)on4)c(C)c3)n2)c1
4. CNS(=O)(=O)c1cc(Nc2ncc(F)c(Nc3ccc(OCc4nc(C)no4)cc3)n2)ccc1C

1. -0.42
2. -0.48
3. 0.15
4. -0.65

Would you mind listing log10 of IC50 for each of the following molecules?
1. COc1cc(Nc2nc(Nc3ccc(C)c(S(N)(=O)=O)c3)ncc2F)ccc1CCC#N
2. CNS(=O)(=O)c1cc(Nc2ncc(F)c(Nc3ccc(CC#N)cc3)n2)ccc1C
3. CC(C)(C#N)Oc1ccc(Nc2nc(Nc3ccc(F)c(S(N)(=O)=O)c3)ncc2F)cc1

1: 0.10; 2: -0.26; 3: 0.18
